Hello, the source for this data is patent US11292792B2, in case you need it.

# TARGET: His-tagged CRBN-DDB1 complex (Homo sapiens (Human))
# Sequence (Q96SW2 whole entry): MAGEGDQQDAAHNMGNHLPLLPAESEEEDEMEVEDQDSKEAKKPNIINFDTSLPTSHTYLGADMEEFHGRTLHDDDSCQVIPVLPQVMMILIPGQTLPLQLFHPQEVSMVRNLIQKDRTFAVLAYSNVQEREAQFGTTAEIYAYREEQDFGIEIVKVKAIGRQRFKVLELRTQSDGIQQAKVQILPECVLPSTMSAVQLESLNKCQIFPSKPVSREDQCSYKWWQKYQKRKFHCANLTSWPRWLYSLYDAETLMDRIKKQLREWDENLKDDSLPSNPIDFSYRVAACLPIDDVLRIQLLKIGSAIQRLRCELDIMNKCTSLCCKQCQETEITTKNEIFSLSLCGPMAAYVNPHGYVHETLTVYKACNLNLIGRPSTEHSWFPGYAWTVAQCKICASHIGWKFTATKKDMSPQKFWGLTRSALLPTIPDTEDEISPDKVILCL
# Sequence (Q16531 whole entry partner): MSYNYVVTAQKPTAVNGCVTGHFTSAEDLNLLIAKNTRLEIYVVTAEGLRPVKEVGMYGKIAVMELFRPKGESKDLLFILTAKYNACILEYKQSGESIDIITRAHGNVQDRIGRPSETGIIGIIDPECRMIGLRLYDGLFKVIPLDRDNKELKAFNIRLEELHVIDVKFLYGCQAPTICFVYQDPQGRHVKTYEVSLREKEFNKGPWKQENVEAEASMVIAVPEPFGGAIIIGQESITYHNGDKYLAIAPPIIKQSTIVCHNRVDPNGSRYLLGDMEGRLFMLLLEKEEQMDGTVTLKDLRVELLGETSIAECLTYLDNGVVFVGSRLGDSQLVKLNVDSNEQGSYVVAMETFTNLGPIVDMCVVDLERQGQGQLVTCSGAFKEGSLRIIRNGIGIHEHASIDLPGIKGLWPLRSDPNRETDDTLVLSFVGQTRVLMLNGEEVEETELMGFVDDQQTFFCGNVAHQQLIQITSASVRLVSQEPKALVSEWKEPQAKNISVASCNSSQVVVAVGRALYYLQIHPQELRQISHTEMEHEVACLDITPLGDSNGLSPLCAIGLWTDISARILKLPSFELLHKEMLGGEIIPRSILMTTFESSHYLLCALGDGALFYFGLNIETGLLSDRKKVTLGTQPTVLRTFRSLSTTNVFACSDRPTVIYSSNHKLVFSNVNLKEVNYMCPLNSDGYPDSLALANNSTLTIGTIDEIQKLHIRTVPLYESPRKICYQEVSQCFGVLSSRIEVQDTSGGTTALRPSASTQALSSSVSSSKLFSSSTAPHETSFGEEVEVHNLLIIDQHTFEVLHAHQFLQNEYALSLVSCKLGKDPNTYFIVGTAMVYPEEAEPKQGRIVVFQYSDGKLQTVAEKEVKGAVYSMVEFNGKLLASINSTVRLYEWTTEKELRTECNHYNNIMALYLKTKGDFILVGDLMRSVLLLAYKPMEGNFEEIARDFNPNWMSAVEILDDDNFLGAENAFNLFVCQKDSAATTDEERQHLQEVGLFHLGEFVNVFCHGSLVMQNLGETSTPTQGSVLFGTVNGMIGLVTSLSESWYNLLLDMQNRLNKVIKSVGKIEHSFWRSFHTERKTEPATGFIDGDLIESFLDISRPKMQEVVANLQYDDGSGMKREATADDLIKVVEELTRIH
# ASSAY_DETAILS: Time-resolved fluorescence resonance energy transfer (TR-FRET) assay, displacement of Cy5-labeled thalidomide
# Format: binding
# SETTINGS: read-out: CRBN HTRF IC50
pIC50: −log10 of the molar value.

| MOLECULE | pIC50 |
| --- | --- |
| O=C1CCC(n2c3cccc(F)c3c3cccnc32)C(=O)N1 (centres unmarked) | > 5.00 |
| O=C1CCC(n2c3cccc(C#CCOCCOCCOCc4ccccc4)c3c3cccnc32)C(=O)N1 (centres unmarked) | > 5.00 |
| O=C1CCC(n2c3ccccc3c3cc(CCCOCCOCCO)cnc32)C(=O)N1 (centres unmarked) | 4.52 to 5.00 |
| CC(C)(C)OC(=O)NCCOCCOC(=O)NCc1ccc2c(c1)c1cccnc1n2C1CCC(=O)NC1=O (centres unmarked) | > 5.00 |
| CC(C)(C)OC(=O)NCCOCCOCC(=O)NCc1ccc2c(c1)c1cccnc1n2C1CCC(=O)NC1=O (centres unmarked) | > 5.00 |
